Hello, the source for this data is patent US20220259315A1, in case you need it.

Form field: pKd (one value per entry).
molecular target: T1, recombinant human Fc-PD-1 protein (human, UniProt Q15116 25-170); assay: Biacore, Fab, human Fc-PD-1
T1 construct: may be the same protein as the PD-1 Fc fusion of the Luminex assays; also called recombinant human PD-1 in an Fc fusion construct; not shown: Fc part not described
T1 sequence (Q15116 25-170): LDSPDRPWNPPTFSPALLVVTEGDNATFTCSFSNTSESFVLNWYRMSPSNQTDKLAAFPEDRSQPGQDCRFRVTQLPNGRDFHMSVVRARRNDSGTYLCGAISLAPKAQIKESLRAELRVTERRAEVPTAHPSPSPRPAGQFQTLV
Notebook: values listed as pKd are -log10 of the concentration (mol/L).

binder	pKd
A35799 (Fab, V domains shown, humanized Fab clone of 137F2; also called humanized antibody A35799) VH: QMQLVQSGAEVKKTGSSVKVSCKASGYTFTNYWIGWVRQMPGKGLEWMGDIYPGGGYTNYNEKFKGRVTITADKSTSTAYMELSSLRSEDTAVYYCARGYDFVLDRWGQGTTVTVSS VL: DVVMTQSPAFLSVTPGEKVTITCKSSQSLFNSETQKNYLAWYQQKPGQPPKLLIYWASTRESGVPSRFSGSGSGTDFTLTISSLQPEDFATYYCKQSYTLRTFGGGTKLEIK	9.13

What does the record list as pKd for A35818 (Fab, V domains shown, humanized Fab clone of 137F2; also called humanized antibody A35818) VH: QMQLVQSGPEVKKPGTSVKVSCKASGFTFTNYWIGWVRQAPGQALEWMGDIYPGGGYTNYNEKFKGRVTITADKSTSTAYMELSSLRSEDTAVYYCARGYDFVLDRWGQGTTVTVSS VL: DVVMTQSPAFLSVTPGEKVTITCKSSQSLFNSETQKNYLAWYQQKPGQAPRLLIYWASTRESGVPSRFSGSGSGTDFTFTISSLEAEDAATYYCKQSYTLRTFGGGTKLEIK ? 8.97
